Biological target: TYK2 (Homo sapiens)
Sequence (P29597 whole entry): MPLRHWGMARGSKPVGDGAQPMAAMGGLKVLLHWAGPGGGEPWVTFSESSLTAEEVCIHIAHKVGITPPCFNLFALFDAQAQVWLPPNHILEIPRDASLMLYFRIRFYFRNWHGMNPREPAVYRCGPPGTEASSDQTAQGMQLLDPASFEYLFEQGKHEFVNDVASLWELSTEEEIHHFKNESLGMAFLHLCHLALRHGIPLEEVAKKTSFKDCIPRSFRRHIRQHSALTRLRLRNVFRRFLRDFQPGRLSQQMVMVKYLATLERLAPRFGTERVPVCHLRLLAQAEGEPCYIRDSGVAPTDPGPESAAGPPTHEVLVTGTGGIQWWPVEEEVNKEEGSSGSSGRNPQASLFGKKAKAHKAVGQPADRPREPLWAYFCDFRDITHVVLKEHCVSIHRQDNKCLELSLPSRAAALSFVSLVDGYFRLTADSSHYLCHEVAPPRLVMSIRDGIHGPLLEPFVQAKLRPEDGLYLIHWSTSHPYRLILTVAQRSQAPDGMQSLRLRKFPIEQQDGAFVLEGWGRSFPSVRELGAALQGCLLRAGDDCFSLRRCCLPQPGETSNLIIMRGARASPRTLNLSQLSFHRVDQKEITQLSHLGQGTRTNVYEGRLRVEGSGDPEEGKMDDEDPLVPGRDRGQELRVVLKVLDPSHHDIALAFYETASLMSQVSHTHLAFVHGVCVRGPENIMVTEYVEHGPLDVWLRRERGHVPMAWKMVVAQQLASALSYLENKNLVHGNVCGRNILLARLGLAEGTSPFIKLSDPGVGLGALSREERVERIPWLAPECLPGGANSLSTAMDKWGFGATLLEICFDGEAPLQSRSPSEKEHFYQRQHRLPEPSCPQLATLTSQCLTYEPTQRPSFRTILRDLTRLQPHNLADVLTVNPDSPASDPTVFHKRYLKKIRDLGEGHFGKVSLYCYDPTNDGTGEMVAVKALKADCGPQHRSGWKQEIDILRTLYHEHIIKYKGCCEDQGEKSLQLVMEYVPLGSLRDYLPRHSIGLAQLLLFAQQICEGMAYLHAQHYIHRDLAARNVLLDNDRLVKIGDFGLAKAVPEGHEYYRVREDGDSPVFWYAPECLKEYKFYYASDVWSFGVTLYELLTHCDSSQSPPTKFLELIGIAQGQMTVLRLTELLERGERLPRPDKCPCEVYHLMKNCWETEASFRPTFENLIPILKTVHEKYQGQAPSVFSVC
Assay: TYK2 kinase inhibition (Table A1)
Assay type: biochemical
Settings: Table B1
pIC50: −log10 of the molar value. Counter-ions that a name gives are not always drawn.
outcome-measure: pIC50

| molecule | number |
| --- | --- |
| O=C(Nc1nc[nH]n1)Nc1ccc2cc1CCc1cccc(c1)Nc1ncc(Cl)c(n1)N2 [Example B244, trifluoroacetate] | 8.80 |
| N#Cc1ccc(S(=O)(=O)Nc2ccc3cc2CCc2cccc(c2)Nc2ncc(Cl)c(n2)N3)cc1 [Example B154, trifluoroacetate] | 9.08 |
| O=C(Nc1ccc2cc1CCc1cncc(c1)Nc1ncc(Cl)c(n1)N2)N[C@H]1CCN(C(=O)c2cc(C3CC3)on2)C1 [Example B270, bis(trifluoroacetate)] | 6.22 |
| Cn1ccc(C(=O)Nc2ccc3cc2CCc2cccc(c2)Nc2ncc(Cl)c(n2)N3)n1 [Example B31, trifluoroacetate] | 8.00 |
| CC(C)(C)NS(=O)(=O)c1cc2cc(c1)Nc1nc(ncc1Cl)Nc1cccc(c1)CC2 [Example B16, trifluoroacetate] | 6.69 |

P: Nc1ccc2cc1CCc1cncc(c1)Nc1ncc(Cl)c(n1)N2 [Example B20, tris(trifluoroacetate)]
Q: CC(C)C(=O)Nc1ccc2cc1CCc1cccc(c1)Nc1ncc(Cl)c(n1)N2 [Example B55, trifluoroacetate]
R: O=C(Nc1nnn[nH]1)Nc1ccc2cc1CCc1cccc(c1)Nc1ncc(Cl)c(n1)N2 [Example B251, trifluoroacetate]
(Q) Ordering: ascending pIC50. Response field: labels, in requested order.
(A) Q, R, P
(Q: 7.64, R: 7.85, P: 8.80)

P: O=C(Nc1ccc(Cl)cc1)Nc1ccc2cc1CCc1cccc(c1)Nc1ncc(Cl)c(n1)N2 [Example B86, trifluoroacetate]
Q: Cc1nc(S(=O)(=O)Nc2ccc3cc2CCc2cccc(c2)Nc2ncc(Cl)c(n2)N3)cn1C [Example B151, bis(trifluoroacetate)]
(Q) Thinking about recorded pIC50 values, which is higher, P or Q ? # respond with the chosen item's label
(A) Q

----------
Target: human JAK2 (a.a. 828-1132) (Homo sapiens, UniProt O60674)
Construct: JAK2 (a.a. 828-1132); His tag (N); made in house; host or cells: insect cells (baculovirus)
Sequence (O60674 828-1132): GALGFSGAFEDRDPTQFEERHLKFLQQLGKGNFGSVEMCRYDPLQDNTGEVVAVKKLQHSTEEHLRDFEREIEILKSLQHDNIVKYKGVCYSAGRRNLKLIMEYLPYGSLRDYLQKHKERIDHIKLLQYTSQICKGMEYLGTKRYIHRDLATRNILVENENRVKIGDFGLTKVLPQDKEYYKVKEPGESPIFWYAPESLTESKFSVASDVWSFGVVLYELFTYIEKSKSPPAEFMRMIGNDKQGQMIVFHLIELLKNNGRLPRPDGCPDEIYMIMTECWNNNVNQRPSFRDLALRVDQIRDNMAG
Test: In vitro JAK kinase assay (HTRF, phosphorylation of a biotinylated peptide), JAK2
Assay type: biochemical
Settings: method AA1 (30 μM ATP) or AA2 (1000 μM ATP), not stated per value
Where a name gives a salt, the structure may show the parent alone.
# Lookup of reported IC50 keyed by entry

Some solved entries appear below for comparison.
| compound | target-or-system | IC50 |
| --- | --- | --- |
| CS(=O)(=O)N1CCC(CC(=O)Nc2ccc3cc2CCc2cncc(c2)Nc2ncc(Cl)c(n2)N3)CC1 [Example A79, bis(trifluoroacetate)] | human JAK2 (a.a. 828-1132) (Homo sapiens, UniProt O60674) | 1.9 nM |
| N#Cc1ccnc(N2CCC(CC(=O)Nc3ccc4cc3CCc3cncc(c3)Nc3ncc(Cl)c(n3)N4)CC2)c1 [Example A178, tris(trifluoroacetate)] | human JAK2 (a.a. 828-1132) (Homo sapiens, UniProt O60674) | > 200 nM |

(Q) Hello, I am looking for reported IC50 with human JAK2 (a.a. 828-1132) (Homo sapiens, UniProt O60674) for COc1cccc(S(=O)(=O)N2CCC(CC(=O)Nc3ccc4cc3CCc3cccc(c3)Nc3ncc(Cl)c(n3)N4)CC2)c1 [Example A206, trifluoroacetate] . Could you help?
(A) > 200 nM
